EXPERIMENTAL SYSTEM: human CGT (Homo sapiens)
Sequence (Q16880 21-541): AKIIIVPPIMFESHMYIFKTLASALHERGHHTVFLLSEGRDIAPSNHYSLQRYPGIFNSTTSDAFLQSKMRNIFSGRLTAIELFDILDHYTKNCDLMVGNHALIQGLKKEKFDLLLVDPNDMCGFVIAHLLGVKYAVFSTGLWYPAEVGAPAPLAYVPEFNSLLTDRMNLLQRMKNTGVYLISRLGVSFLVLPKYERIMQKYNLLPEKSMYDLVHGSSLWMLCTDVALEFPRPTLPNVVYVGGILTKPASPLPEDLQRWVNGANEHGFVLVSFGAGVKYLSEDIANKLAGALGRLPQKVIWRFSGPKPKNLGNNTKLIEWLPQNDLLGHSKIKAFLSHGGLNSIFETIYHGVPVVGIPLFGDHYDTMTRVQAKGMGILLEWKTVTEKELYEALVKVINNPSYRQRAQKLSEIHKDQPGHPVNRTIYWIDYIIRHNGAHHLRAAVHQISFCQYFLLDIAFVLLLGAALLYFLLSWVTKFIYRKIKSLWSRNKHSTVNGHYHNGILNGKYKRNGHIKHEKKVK
PROTOCOL SUMMARY: Assay 1: CGT Enzymatic Assay (RapidFire/MS/MS, 0.01% Tween 80)
Assay type: biochemical
EXPERIMENTAL CONDITIONS: Table 1, Compounds of Formula (I) and Formula (II); CGT enzymatic assay; read-out: IC50
EXPERIMENTAL READOUT: IC50

Consider the worked cases shown below.
* N#Cc1cc(Cl)cc(C2(O)CN(c3ccc(Br)cc3)C(=O)N2c2ccc(Br)cc2)c1 (stereo not shown) [Compound 113] | 1000 to 10000 nM
* CCC1N(c2ccc(Cl)cc2)C(=O)N(c2ccc(Cl)cc2)C1(O)c1cccc(OC(F)(F)F)c1 (stereo not shown) [Compound 82] | < 1000 nM
* CCCC1N(c2ccc(Br)cc2)C(=O)N(c2ccc(Br)cc2)C1(O)c1cccc(Cl)c1 (stereo not shown) [Compound 119] | < 1000 nM
* C[C@@H]1N(c2ccc(Br)cc2)C(=O)N(c2ccc(Br)cc2)C1(O)c1cccs1 (stereo partly shown) [Example 49-1] | 1000 to 10000 nM
* Cc1ccc(C2(O)C(=O)N(c3ccc(Br)cc3)C(=O)N2c2ccc(Br)cc2)cc1 (stereo not shown) [Example 200] | 50000 to 100000 nM
* C[C@]1(c2ccccc2)N(c2ccc(Cl)cc2)C(=O)N(c2ccc(Cl)cc2)[C@@]1(O)c1ccccc1 [Compound 121-4] | 1000 to 10000 nM

// below: IC50 requested for another compound
Input C[C@@H]1N(c2ccc(Cl)cc2)C(=O)N(c2ccc(Cl)cc2)C1(O)c1cccc(Cl)c1 (single isomer, unassigned) [Compound 62-1] , output reported IC50. < 1000 nM
